Biological target: bovine cardiac myofibrils (full-length cardiac myosin ATPase in the native sarcomere) (Bos taurus (Bovine), UniProt Q9BE39)
Sequence (Q9BE39 whole entry): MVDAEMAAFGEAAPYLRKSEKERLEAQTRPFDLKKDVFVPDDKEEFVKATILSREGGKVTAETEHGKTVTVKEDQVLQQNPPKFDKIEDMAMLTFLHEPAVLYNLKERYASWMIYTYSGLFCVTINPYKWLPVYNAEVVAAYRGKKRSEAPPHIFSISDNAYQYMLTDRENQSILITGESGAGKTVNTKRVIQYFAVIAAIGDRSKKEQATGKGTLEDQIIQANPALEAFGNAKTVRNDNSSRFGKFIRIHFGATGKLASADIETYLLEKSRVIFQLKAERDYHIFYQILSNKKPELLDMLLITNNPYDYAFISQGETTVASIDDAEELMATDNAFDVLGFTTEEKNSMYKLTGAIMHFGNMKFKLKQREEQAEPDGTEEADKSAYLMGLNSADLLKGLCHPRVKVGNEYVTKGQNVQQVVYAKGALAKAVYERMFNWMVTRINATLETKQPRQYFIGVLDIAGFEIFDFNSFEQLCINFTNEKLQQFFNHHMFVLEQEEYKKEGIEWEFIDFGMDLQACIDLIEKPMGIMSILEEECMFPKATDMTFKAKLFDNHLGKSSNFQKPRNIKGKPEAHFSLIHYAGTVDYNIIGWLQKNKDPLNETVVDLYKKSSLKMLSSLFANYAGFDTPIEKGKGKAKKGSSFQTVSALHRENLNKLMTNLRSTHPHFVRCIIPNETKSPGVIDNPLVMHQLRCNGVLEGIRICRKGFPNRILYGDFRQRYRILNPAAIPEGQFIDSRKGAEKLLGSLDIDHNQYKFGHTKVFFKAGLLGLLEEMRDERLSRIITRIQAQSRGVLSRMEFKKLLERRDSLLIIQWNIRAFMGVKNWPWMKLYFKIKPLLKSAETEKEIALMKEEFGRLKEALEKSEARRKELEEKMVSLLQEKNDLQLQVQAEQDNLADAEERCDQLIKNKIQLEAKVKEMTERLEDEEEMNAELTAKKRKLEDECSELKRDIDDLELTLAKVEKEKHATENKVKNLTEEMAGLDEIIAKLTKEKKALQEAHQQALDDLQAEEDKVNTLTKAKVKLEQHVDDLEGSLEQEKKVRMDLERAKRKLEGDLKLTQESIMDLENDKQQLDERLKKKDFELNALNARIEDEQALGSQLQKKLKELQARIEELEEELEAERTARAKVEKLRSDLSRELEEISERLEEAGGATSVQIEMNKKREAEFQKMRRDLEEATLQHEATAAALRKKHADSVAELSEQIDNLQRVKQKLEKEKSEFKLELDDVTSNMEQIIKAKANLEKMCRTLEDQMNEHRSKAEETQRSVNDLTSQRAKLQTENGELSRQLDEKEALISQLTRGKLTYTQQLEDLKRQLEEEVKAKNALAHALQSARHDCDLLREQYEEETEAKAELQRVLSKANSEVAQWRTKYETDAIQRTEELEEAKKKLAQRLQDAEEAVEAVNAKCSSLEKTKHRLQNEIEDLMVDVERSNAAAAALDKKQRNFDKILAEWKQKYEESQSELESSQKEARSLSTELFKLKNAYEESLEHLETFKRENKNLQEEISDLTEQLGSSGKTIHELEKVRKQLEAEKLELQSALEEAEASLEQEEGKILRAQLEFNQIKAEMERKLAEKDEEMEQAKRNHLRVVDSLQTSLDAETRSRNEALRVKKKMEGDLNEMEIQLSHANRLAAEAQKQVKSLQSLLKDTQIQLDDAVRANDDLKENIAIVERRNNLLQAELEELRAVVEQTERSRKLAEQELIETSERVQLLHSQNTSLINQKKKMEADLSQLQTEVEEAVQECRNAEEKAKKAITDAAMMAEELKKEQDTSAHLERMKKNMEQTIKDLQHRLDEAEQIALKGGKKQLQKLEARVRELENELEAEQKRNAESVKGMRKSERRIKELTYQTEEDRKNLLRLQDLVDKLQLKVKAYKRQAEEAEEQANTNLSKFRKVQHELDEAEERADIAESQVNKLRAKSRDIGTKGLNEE
Sequence (P85100 whole entry partner): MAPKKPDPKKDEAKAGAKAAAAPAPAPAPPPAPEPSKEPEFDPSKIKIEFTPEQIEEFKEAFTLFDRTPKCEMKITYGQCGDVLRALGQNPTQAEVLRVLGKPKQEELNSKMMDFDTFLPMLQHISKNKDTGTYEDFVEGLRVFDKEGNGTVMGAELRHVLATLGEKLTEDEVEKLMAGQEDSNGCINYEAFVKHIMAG
Sequence (Q3SZE5 whole entry partner): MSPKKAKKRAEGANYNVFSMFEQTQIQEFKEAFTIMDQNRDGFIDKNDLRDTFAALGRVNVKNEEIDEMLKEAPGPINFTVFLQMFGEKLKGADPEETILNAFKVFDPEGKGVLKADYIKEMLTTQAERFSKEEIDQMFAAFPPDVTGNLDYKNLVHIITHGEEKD
Assay: Skinned bovine cardiac myofibril ATPase assay (PK/LDH-coupled)
Format: biochemical
Settings: Ca2+ activating to 75% of maximal rate, read-out: CDMF75 IC50
Provide the reported pIC50 of each item.
# pIC50 = -log10(concentration in molar units)

Identify the reported pIC50 for the following entry. [2H]C([2H])([2H])c1noc(-c2ccc3c(c2)OC[C@H]3NC(=O)c2cnn(C)c2C)n1 [Compound 341]
5.14

Identify the reported pIC50 for the following entry. CCc1nc(-c2ccc3c(c2)OC[C@H]3NC(=O)N2CC[C@@H](F)C2)no1 [Compound 743]
4.44

Identify the reported pIC50 for the following entry. Cc1nc(-c2ccc3c(c2)CC[C@H]3NC(=O)c2cnc(C)o2)no1 [Compound 48]
5.31

Identify the reported pIC50 for the following entry. Cc1ncc(C(=O)N[C@@H]2CCc3cc(-c4noc(C(F)F)n4)ccc32)n1C [Compound 678]
5.64
